B1: HDV Ribozyme (parent)
chain: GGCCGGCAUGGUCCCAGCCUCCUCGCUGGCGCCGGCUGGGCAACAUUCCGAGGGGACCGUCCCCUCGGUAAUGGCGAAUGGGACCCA

- Variants of: B1
- ASSAY SUMMARY: self-cleavage, relative activity (ratio to wild type); higher = more cleavage; co-transcriptional
Classify by measured self-cleavage: YES if it is equal to or exceeds 0.2, NO if it is smaller.

Query string: self-cleavage >= 0.2 for C14G U46C ?
Result string: YES

Could you now consider this next variant?
Query string: self-cleavage >= 0.2 for G6A A83C ?
Result string: YES
